Experiment: in vitro
Assay type: in vitro ADME, mouse (ND4 Swiss Webster)
Details: mouse liver post-mitochondrial supernatant, NADPH
Protocol: Several female ND4 Swiss Webster mice were euthanized by carbon dioxide inhalation and the livers excised and rinsed with ice cold phosphate buffered saline (pH 7.4). The livers were minced, gently homogenized in 50 mM phosphate buffer (pH 7.4) with a Dounce homogenizer, and centrifuged at 9600×g for 20 min. […] The samples were then extracted, and analyzed by HPLC as described in section 7.1. […]
readout-kind: number of metabolites

# molecule, readout-kind, result
rows = [
    ("N=C(N)c1ccc(OCCCCCOc2ccc(C(=N)N)cc2)cc1 [pentamidine, reference compound]", "number of metabolites", "seven"),
]

Taken from patent US5840893A.
